Could you please report measured TGI for the items listed next?
system: CCRF-CEM leukemia; experiment: NCI tumour cell line growth inhibition, 48 h
Entry rule: numbers only, all in µM.

Return reported TGI; argument: Cc1c([C@H](C)[C@@H]2NC[C@@H](C)C[C@H]2O)ccc2c1C[C@H]1[C@H]2CC=C2C[C@@H](O)CC[C@@]21C
38.4

Return reported TGI; argument: Cc1c2ccncc2c(C)c2c1[nH]c1ccc(OCCN(C)C)cc12
1.3

----------
tested on: UO-31 renal; assay: NCI tumour cell line growth inhibition, 48 h
Assay metric: GI50

Which measured GI50 belongs to CCN(CC)CCCC(C)Nc1cc(-c2cccc(OC(F)(F)F)c2)nc2ccc(N3CCCC3)cc12 (stereo not given) , tested on UO-31 renal?
69.9 nM

Which measured GI50 belongs to COc1ccc(-c2cncn2-c2cc(OC)c(OC)c(OC)c2)cc1 , tested on UO-31 renal?
93.6 nM

Which measured GI50 belongs to O=C(NCC(F)(F)F)Nc1cccc(-c2cnc3cc(-c4ccc(F)cc4)ccn23)c1 , tested on UO-31 renal?
575 nM

Which measured GI50 belongs to C#C[C@@]1(O)[C@@H](CO)O[C@@H](n2cc(I)c3c(N)ncnc32)[C@@H]1O , tested on UO-31 renal?
90.1 nM

Which measured GI50 belongs to N#CC1=C(N)Oc2c(ccc3ccccc23)C1c1cc(=O)oc2ccc(Cl)cc12 (stereo not given) , tested on UO-31 renal?
1820 nM

----------
tested on: ACHN renal; experiment: NCI tumour cell line growth inhibition, 48 h; in the data active = GI50 below about 0.43 µM; inactive = the rest
Returns: one label drawn from active, inactive

Short answer needed: outcome of this test for O=C(NCCCc1cn[nH]c1)c1ccc(-c2ccncc2)c(C#Cc2ccc(F)cc2)c1 ?
inactive

Short answer needed: outcome of this test for CCCCCCCCCCCCC(O)c1ccco1 (centres undefined) ?
inactive

Short answer needed: outcome of this test for CN=C1C=CC(=C(c2ccc(N(C)C)cc2)c2ccc(N(C)C)cc2)C=C1 ?
active

Short answer needed: outcome of this test for CC(=O)OC12C=C(C)C(C(C)C1)C1C(=O)N(CCN3CCCCC3)C(=O)C12 (centres undefined) ?
inactive

Short answer needed: outcome of this test for COc1ccc(/C=C/c2c(C(=O)/C=C/c3ccc(C(F)(F)F)cc3)c(C)nc3ccccc23)cc1 ?
inactive

Short answer needed: outcome of this test for O=C(Nc1ccccc1I(=O)=O)C1CCCCC1 ?
inactive

Short answer needed: outcome of this test for CC1(C)COC(c2ccc(CC(Cc3ccc(C4(C(C)(C)C)OCC(C)(C)CO4)cc3)C(=O)O)cc2)(C(C)(C)C)OC1 ?
inactive

Short answer needed: outcome of this test for Cc1ccc(N=C[N-]c2ccc(C)cc2)cc1.Cc1ccc(N=C[N-]c2ccc(C)cc2)cc1.O=C([O-])C(F)(F)F.O=C([O-])C(F)(F)F.[OH3+].[OH3+].[Rh+2].[Rh+2] ?
inactive

Short answer needed: outcome of this test for COc1ccc(-c2nc(-c3nc4ccc(C)cc4[nH]3)cc3c2[nH]c2ccccc23)cc1 ?
inactive

----------
system: U251 CNS; assay: NCI tumour cell line growth inhibition, 48 h
Assay metric: TGI

Return reported TGI; argument: COc1ccccc1C1C(C#N)=C(N)Oc2n[nH]c(C)c21 (configuration not stated)
> 100 µM

Return reported TGI; argument: O=C1CSC(c2ccccc2Cl)N1c1nnc(Cn2cnnc2)o1 (configuration not stated)
18.9 µM

Return reported TGI; argument: CCCCCC(O)C(O)CCC[C@H](O)[C@H]1CC[C@H]([C@H]2CC[C@H]([C@H](O)CCCCCCCCCCCCC3=C[C@H](C)OC3=O)O2)O1 (some centres not stated)
> 100 µM

Return reported TGI; argument: CC1(C)O[C@@H](C[C@]2(C#N)C[C@H](CCl)OC(C)(C)O2)C[C@@H](C#N)O1
> 100 µM

Return reported TGI; argument: C#CCOC(=O)c1ccc(OC(C)=O)cc1
> 100 µM

Return reported TGI; argument: N#Cc1ccccc1NC(=O)C(=O)C1NC(=S)NC1=O (configuration not stated)
> 100 µM

Return reported TGI; argument: COc1ccc(C2=Nc3ccccc3SC(C)C2)cc1OC (configuration not stated)
30.9 µM

----------
test system: TK-10 renal; assay: NCI tumour cell line growth inhibition, 48 h
Could you please report measured TGI for the items listed next?

Return reported TGI; argument: CC1(C)O[C@@H](C[C@]2(C#N)C[C@H](CCl)OC(C)(C)O2)C[C@@H](C#N)O1
> 100 µM

Return reported TGI; argument: O=C(C(=O)n1ncc(Cl)c(Cl)c1=O)n1ncc(Cl)c(Cl)c1=O
70.1 µM

Return reported TGI; argument: CCN(CC)C(=O)Cn1c2c(c3ccccc31)CCCC2
> 100 µM

Return reported TGI; argument: Cc1cc(S(=O)(=O)/N=C(/NN)Nc2ccc(Cl)cc2)c(S)cc1Cl
65.3 µM

Return reported TGI; argument: CC1(C)C=C(/C=N/Nc2ccccc2)C(C#N)=C(O)C1(C#N)C#N
> 100 µM

Return reported TGI; argument: C=C1C(O)C2CC(C)(CO)C(=O)C2=C(CC(C)C)C12CC2 (stereo not drawn)
> 100 µM

Return reported TGI; argument: CCOC(=O)c1cc(-c2ccc(-c3cc(C(=O)OCC)c(C#N)c(N)c3C#N)cc2)c(C#N)c(N)c1C#N
> 100 µM

Return reported TGI; argument: CC(=O)N1CCN(CCNC(=O)n2cc(-c3ccncc3)c(-c3cc(O)cc(Cl)c3)n2)CC1
50.1 µM

Return reported TGI; argument: CC1(C)Oc2ccc3c(=O)cc(-c4ccccc4)oc3c2C1C(=O)O (stereo not drawn)
> 100 µM

Return reported TGI; argument: C=C1CC(C)(c2cccc(Nc3nc4ccccc4c4occc34)c2)OC1=O (stereo not drawn)
9.99 µM

Return reported TGI; argument: O=[N+]([O-])c1ccc(Cl)c(CNc2ncnc3c2ncn3C2CCCCO2)c1 (stereo not drawn)
> 100 µM

Return reported TGI; argument: COc1ccc(-c2nc(-c3nc4ccc(C)cc4[nH]3)cc3c2[nH]c2ccccc23)cc1
> 100 µM

Return reported TGI; argument: O=c1c2nc(-c3ccccc3)oc2n(-c2ccccc2)c(=O)n1-c1ccccc1
21.5 µM

Return reported TGI; argument: CC(CNC(N)=O)NC(N)=O (stereo not drawn)
> 100 µM

Return reported TGI; argument: CCOC(=O)C1=C(O)c2ccc(C)cc2C(=O)C1=O
> 100 µM

Return reported TGI; argument: COC(=O)Cn1cnc2c(Cl)nc(Nc3ccccc3)nc21
> 100 µM

Return reported TGI; argument: CS(=O)(=O)Nc1cccc(-c2ccc3ncnc(Nc4ccc(F)c(Cl)c4)c3c2)c1
2.26 µM

Return reported TGI; argument: Cc1ccc(C)c(N2C(=O)C(=O)C(c3nc4ccccc4o3)C(=O)C2=O)c1
> 100 µM

Return reported TGI; argument: O=[Se](O)O
> 100 µM

Return reported TGI; argument: CCC(C)CC(C)CC(C)/C=C(\C)C1=C(C)CC(C)(O)O1 (stereo not drawn)
> 100 µM

Return reported TGI; argument: NCCSCCC(=O)O
> 100 µM

Return reported TGI; argument: CCN(CC)C(=O)CCN1CC1
> 10 µM

Return reported TGI; argument: COc1ccc2cc(C(C)C(=O)N3C(=O)OCC3(C)C)ccc2c1 (stereo not drawn)
> 100 µM

----------
tested on: DLD-1 colon; assay: NCI tumour cell line growth inhibition, 48 h
Assay metric: TGI

Return reported TGI; argument: CC(C)c1cccc(C(C)C)c1N1C(=O)C(=O)C(c2nc3ccccc3o2)C(=O)C1=O
> 100 µM

Return reported TGI; argument: O=C1C2C=CC(n3[nH]c(=O)n(Cc4ccccc4)c3=O)CC2C(=O)N1c1ccc(Br)cc1 (stereo unspecified)
> 100 µM

Return reported TGI; argument: CS(=O)(=O)OCCCNCCCOS(C)(=O)=O
9100 µM

Return reported TGI; argument: NC1c2ccccc2Nc2ccccc21
17.1 µM

Return reported TGI; argument: CC1=C(SC#N)S(=O)(=O)N(c2ccccc2)C(C)=C1SC#N
> 100 µM

Return reported TGI; argument: C/C(CN1C(=O)c2ccccc2C1=O)=N\NS(=O)(=O)c1cccc(C(=O)O)c1
> 100 µM

Return reported TGI; argument: CCOC(=O)/C(=C/c1cccc(Cl)c1)N(CC)CC
> 100 µM

Return reported TGI; argument: CCN(CC)CC1CCCCN1CC(=O)N1CC(C)C(=O)Nc2ccccc21 (stereo unspecified)
> 100 µM

Return reported TGI; argument: N#CC(C(=O)CCCC(=O)Nc1ccc(Cl)cc1Cl)c1ccccc1 (stereo unspecified)
> 100 µM

Return reported TGI; argument: CC1(C)O[C@@H](C[C@]2(C#N)C[C@H](CCl)OC(C)(C)O2)C[C@@H](C#N)O1
> 100 µM

Return reported TGI; argument: O=C(O)CCNS(=O)(=O)c1ccc2ccccc2c1
> 100 µM
